EXPERIMENTAL SYSTEM: hQC (Homo sapiens)
Sequence (Q16769 29-361): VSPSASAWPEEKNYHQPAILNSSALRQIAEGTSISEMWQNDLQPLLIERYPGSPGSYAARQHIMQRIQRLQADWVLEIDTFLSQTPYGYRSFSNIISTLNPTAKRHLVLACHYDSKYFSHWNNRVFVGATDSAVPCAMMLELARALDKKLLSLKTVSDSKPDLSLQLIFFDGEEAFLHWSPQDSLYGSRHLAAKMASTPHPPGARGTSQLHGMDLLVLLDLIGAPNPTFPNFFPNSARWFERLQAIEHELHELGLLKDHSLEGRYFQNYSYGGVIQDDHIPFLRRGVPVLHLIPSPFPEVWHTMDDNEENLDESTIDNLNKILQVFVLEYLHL
TEST NAME: Inhibitor assay for glutaminyl cyclase activity (fluorometric, H-Gln-βNA / H-Gln-AMC)
Assay type: biochemical
RUN PARAMETERS: read-out: IC50
Task for the reader: assign each of the following molecules its reported IC50.
One number for each entry, in nM.

Worked examples follow.
Lab book: IC50 of O=C1C(O)=C(c2ccc(O)cc2)C(CO)N1CCCn1ccnc1 (stereo not drawn) noted as 400

Lab book: IC50 of CCC1=C(O)C(=O)N(CCCn2ccnc2)C1C (stereo not drawn) noted as 2200

Now for another entry.
Lab book: IC50 of O=C1C(O)=C(c2ccccc2)C(c2cc[nH]n2)N1CCCn1ccnc1 (stereo not drawn) noted as 3100
